molecular target: GABA-A receptor; alpha-5/beta-3/gamma-2 (Homo sapiens, UniProt P18507+P28472+P31644); test: Negative logarithm of effective concentration against GABA-A alpha-5-beta-3-gamma-2 receptor

[
  {
    "Entry Smiles": "N#Cc1cccc(-c2cnnc(-c3ccccc3)c2)c1",
    "EC50": "7.41 nM"
  }
]

---

Some molecules, each annotated with its measured Ki.
Target: GABA-A receptor; alpha-1/beta-3/gamma-2 (Homo sapiens, UniProt P14867+P18507+P28472)
Sequence (P14867 whole entry): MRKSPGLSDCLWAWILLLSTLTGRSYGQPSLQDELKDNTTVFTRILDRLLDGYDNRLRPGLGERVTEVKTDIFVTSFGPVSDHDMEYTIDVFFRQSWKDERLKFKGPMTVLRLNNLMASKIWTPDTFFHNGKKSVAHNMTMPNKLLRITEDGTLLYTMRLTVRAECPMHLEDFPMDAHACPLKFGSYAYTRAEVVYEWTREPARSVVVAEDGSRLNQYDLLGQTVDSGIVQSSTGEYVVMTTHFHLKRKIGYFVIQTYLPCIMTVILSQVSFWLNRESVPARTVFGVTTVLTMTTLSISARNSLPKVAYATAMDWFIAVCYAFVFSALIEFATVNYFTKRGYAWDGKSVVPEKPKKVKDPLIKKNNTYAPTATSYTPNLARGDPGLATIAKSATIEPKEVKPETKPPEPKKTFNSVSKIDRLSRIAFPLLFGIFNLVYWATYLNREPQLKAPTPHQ
Sequence (P18507 whole entry): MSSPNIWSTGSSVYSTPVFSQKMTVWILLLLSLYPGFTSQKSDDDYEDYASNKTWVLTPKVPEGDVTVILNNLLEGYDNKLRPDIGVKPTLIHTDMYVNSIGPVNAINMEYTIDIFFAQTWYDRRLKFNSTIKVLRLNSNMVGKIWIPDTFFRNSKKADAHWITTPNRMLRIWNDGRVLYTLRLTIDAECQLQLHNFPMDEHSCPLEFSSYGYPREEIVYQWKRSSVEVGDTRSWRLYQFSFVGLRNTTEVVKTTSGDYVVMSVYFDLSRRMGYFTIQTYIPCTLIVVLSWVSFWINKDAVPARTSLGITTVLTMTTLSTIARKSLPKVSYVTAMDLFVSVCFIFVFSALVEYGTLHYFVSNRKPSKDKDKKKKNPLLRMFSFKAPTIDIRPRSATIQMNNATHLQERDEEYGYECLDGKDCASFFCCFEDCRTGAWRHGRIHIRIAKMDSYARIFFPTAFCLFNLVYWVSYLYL
Sequence (P28472 whole entry): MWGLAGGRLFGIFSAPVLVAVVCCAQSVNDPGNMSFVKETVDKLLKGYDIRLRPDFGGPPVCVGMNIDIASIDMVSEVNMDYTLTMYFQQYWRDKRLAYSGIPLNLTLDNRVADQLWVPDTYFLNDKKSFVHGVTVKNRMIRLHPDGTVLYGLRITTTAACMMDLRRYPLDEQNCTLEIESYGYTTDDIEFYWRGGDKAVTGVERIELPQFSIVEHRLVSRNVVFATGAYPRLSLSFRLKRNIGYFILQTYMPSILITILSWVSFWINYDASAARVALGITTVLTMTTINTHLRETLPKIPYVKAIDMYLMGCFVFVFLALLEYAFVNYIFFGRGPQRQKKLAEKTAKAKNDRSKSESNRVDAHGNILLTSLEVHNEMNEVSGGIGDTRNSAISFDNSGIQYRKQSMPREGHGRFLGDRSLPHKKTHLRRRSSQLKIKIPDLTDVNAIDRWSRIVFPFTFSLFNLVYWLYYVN
Assay: Displacement of [3H]-Ro- 15-1788 binding from human recombinant Gamma-aminobutyric acid A receptor alpha-1-beta-3-gamma-2 expressed in mouse fibroblast L(tk-) cells (30 min at 24 degrees C, pH 7.4)

[
  {
    "Entry Smiles": "CNc1cc(-c2cccc(Br)c2)cnn1",
    "Censor Symbol": "=",
    "Ki (nM)": 49
  },
  {
    "Entry Smiles": "CC(C)Oc1cc(-c2cccc(Br)c2)cnn1",
    "Censor Symbol": "=",
    "Ki (nM)": 26
  },
  {
    "Entry Smiles": "CC(C)Nc1cc(-c2cccc(Br)c2)cnn1",
    "Censor Symbol": "=",
    "Ki (nM)": 7.3
  },
  {
    "Entry Smiles": "N#Cc1cccc(-c2cnnc(-c3ccccc3)c2)c1",
    "Censor Symbol": "=",
    "Ki (nM)": 7
  },
  {
    "Entry Smiles": "N#Cc1ccc(-c2cnnc(-c3ccccc3)c2)cc1",
    "Censor Symbol": "=",
    "Ki (nM)": 27
  },
  {
    "Entry Smiles": "Cn1ncnc1COc1cccc(-c2cnnc(-c3ccccc3)c2)c1",
    "Censor Symbol": "=",
    "Ki (nM)": 8.5
  },
  {
    "Entry Smiles": "c1ccc(-c2cnnc(-c3ccccc3)c2)cc1",
    "Censor Symbol": "=",
    "Ki (nM)": 36
  },
  {
    "Entry Smiles": "CCNc1cc(-c2cccc(Br)c2)cnn1",
    "Censor Symbol": "=",
    "Ki (nM)": 3.5
  },
  {
    "Entry Smiles": "N#Cc1cccc(-c2cc(-c3ccccc3)cnn2)c1",
    "Censor Symbol": ">",
    "Ki (nM)": 666
  },
  {
    "Entry Smiles": "Brc1cccc(-c2cnnc(-c3ccccc3)c2)c1",
    "Censor Symbol": "=",
    "Ki (nM)": 7.5
  },
  {
    "Entry Smiles": "COC(=O)c1c(-c2ccccc2)cnnc1-c1ccccc1",
    "Censor Symbol": "=",
    "Ki (nM)": 154
  },
  {
    "Entry Smiles": "CN(C)c1cc(-c2cccc(Br)c2)cnn1",
    "Censor Symbol": "=",
    "Ki (nM)": 55
  },
  {
    "Entry Smiles": "CCOc1cc(-c2cccc(Br)c2)cnn1",
    "Censor Symbol": "=",
    "Ki (nM)": 8.6
  },
  {
    "Entry Smiles": "c1ccc(-c2cc(-c3ccnc(-c4ccncc4)n3)cnn2)cc1",
    "Censor Symbol": "=",
    "Ki (nM)": 1.3
  },
  {
    "Entry Smiles": "COC(=O)c1sccc1-c1cnnc(-c2ccccc2)c1",
    "Censor Symbol": "=",
    "Ki (nM)": 88
  },
  {
    "Entry Smiles": "CC(C)Oc1cccc(-c2cnnc(-c3ccccc3)c2)c1",
    "Censor Symbol": "=",
    "Ki (nM)": 12
  }
]

---

experiment: Low volume of distribution of compound determined after iv administration at 1 mg/kg dose as a solution(1 mg/mL) in a PEG 300:H2O(3:1); type: ADME, organism-based; set-up: dose 1 mg/kg, route intravenous; settings: rat, in vivo, read-out: Vdss
Measured Attribute: Vd (L/kg)

[
  {
    "Entry Smiles": "N#Cc1cccc(-c2cnnc(-c3ccccc3)c2)c1",
    "U": "L/kg",
    "Meas Value": 1.5
  }
]

---

Molecular target: GABA-A receptor; alpha-1/beta-3/gamma-2 (Homo sapiens, UniProt P14867+P18507+P28472)
Sequence (P14867 whole entry): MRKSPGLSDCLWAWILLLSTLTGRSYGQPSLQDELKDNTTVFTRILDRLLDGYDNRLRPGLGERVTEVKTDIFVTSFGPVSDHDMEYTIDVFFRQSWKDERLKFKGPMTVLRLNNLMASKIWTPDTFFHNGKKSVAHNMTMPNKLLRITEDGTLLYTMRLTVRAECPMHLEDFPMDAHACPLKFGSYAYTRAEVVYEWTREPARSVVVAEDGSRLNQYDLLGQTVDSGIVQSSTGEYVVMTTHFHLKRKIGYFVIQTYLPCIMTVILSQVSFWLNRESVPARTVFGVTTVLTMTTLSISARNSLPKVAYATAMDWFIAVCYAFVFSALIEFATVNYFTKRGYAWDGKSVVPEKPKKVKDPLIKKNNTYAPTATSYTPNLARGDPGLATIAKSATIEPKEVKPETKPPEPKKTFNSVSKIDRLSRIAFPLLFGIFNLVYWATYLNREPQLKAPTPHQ
Sequence (P18507 whole entry): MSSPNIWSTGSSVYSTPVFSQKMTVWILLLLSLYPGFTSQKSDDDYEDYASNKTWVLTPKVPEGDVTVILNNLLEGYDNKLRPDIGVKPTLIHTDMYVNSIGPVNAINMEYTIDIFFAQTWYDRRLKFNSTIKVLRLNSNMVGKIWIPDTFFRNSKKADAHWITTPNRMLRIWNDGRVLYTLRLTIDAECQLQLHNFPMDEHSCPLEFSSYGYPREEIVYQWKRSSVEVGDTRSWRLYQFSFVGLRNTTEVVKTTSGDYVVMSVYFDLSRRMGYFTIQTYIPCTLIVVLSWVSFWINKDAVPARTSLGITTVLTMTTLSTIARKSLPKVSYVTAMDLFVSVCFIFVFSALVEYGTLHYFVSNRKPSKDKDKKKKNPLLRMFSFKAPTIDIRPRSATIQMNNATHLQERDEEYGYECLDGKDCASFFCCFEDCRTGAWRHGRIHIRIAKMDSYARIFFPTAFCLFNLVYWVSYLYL
Sequence (P28472 whole entry): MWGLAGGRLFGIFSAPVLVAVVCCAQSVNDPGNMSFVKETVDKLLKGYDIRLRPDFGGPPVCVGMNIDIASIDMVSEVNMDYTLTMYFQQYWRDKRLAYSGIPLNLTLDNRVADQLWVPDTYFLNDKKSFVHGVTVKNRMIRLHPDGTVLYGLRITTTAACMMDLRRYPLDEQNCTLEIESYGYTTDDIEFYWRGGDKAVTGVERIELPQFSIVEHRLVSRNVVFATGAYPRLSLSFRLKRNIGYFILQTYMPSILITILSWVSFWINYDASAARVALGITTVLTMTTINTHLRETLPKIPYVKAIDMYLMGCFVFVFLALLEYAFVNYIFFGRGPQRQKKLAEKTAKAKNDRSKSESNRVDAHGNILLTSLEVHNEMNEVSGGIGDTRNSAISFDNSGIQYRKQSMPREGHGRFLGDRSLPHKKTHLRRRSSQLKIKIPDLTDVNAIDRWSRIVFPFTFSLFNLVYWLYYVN
Assay: Negative logarithm of effective concentration against GABA-A alpha-1-beta-3-gamma-2 receptor
pEC50: −log10 of the molar value.

[
  {
    "Entry Smiles": "N#Cc1cccc(-c2cnnc(-c3ccccc3)c2)c1",
    "pEC50": 8.53
  }
]
